All values here come from PubChem BioAssay AID1745844.

- System: rodent lifetime carcinogenesis bioassay, tumor incidence TD50
- experiment: carcinogenic potency in animals, long-term in vivo studies, CPDB compilation (AID 1745844)
- measurement.context: mouse; strain Swiss albino; males; in drinking water; site: liver; lesion: several types; types named in the paper; dosed 82 weeks; study length 82 weeks
test.readout: TD50

So the reported TD50 for CN(N)C=O , on rodent lifetime carcinogenesis bioassay, tumor incidence TD50, turned out to be 1.03 mg/kg/day

====

- Test system: rodent lifetime carcinogenesis bioassay, tumor incidence TD50
- experiment: carcinogenic potency in animals, long-term in vivo studies, CPDB compilation (AID 1745844)
- measurement.context: rat; strain Sprague-Dawley; females; in feed; site: nasal cavity; lesion: adenocarcinoma; dosed 78 weeks; study length 104 weeks
test.readout: TD50

Value of TD50 reported for the molecule CCOc1ccc(NC(C)=O)cc1 is 7730 mg/kg/day
